These data points were gathered from patent US9718828B2.

Known EC50 of a selection of compounds
tgt: UniProtKB Q06187
experiment: Btk enzyme activity, IMAP fluorescence polarization assay (Assay Method A)
readout kind: EC50

compound: Nc1nccn2c([C@@H]3CCCN(C(=O)C(=O)C(F)(F)F)C3)nc(-c3ccc(C(=O)Nc4cc(C5CC5)ccn4)cc3)c12
readout kind: EC50
observed result: 100 to 1000 nM
--
compound: CCC(=O)N1CCC[C@@H](c2nc(-c3ccc(C(=O)Nc4nc5c(s4)CC(C)CC5)cc3)c3c(N)nccn23)C1 (stereo in doubt)
readout kind: EC50
observed result: < 10 nM
--
compound: Nc1nccn2c([C@@H]3CCCN(C(=O)C4(O)CCC4)C3)nc(-c3ccc(C(=O)Nc4cc(C(F)(F)F)ccn4)cc3)c12
readout kind: EC50
observed result: < 10 nM
--
compound: Cc1nc(-c2ccc(C(=O)Nc3cc(C(F)(F)F)ccn3)cc2)c2c(N)ncc(C(O)CC(C)C)n12 (stereo not shown)
readout kind: EC50
observed result: 10 to 100 nM

----------
Known IC50 of a selection of molecules
tgt: hBTK (full-length BTK, 6HIS-tag cleaved) (Homo sapiens (Human), UniProt Q06187)
Sequence (Q06187 whole entry): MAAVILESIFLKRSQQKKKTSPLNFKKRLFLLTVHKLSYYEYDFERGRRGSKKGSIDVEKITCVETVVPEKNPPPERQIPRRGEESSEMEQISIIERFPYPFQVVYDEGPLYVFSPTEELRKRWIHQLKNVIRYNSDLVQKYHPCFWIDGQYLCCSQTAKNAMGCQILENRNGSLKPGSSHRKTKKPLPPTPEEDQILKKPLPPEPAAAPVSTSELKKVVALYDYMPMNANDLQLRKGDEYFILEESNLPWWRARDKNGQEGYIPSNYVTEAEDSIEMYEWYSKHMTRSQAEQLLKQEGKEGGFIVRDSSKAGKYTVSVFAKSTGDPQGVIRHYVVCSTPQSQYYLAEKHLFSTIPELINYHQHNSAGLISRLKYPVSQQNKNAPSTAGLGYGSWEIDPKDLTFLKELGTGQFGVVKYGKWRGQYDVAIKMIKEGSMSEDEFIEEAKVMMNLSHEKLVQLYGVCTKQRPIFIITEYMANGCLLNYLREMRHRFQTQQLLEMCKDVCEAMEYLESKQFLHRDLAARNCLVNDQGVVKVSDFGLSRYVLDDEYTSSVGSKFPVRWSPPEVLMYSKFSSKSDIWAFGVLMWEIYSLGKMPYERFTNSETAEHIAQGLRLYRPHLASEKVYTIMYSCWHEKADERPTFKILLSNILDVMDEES
experiment: BTK enzymatic activity, IMAP-FP assay (Assay Method B)
Format: biochemical
condition notes: IMAP-FP, 1.05 nM hBTK, 5 μM ATP; class 100-1000 is given as ≧100 nM-<1 μM; read-out: IC50 Btk activity values - Assay Method B
Method: BTK enzymatic activity was determined in an IMAP-FP assay (Immobilized Metal ion Affinity-based fluorescence Polarization; Molecular Devices). […] Plates were read on Packard microplate reader after 60 minutes binding equilibration using Fluorescence Polarization protocol.
readout kind: IC50

smiles string: Cn1cc(CN2CCO[C@@H](c3nc(-c4ccc(C(=O)Nc5cc(C(F)(F)F)ccn5)cc4)c4c(N)nccn34)C2)cn1
observed result: 10 to 100 nM
//
smiles string: C[C@H]1CC[C@H](c2nc(-c3ccc(C(=O)Nc4cc(C(F)(F)F)ccn4)cc3)c3c(N)nccn23)CN1C(=O)C1(C)COC1
observed result: 10 to 100 nM
//
smiles string: Nc1ncc(Br)n2c([C@@H]3CCCN(C(=O)C4CC4)C3)nc(-c3ccc(C(=O)Nc4cc(C(F)(F)F)ccn4)cc3)c12
observed result: < 10 nM

----------
Known EC50 of a selection of molecules
tgt: Btk enzyme (His-Btk) (Homo sapiens (Human), UniProt Q06187)
experiment: Btk enzyme activity, IMAP fluorescence polarization assay (Assay Method A)
Counter-ions that a name gives are not always drawn.

molecule: CN1CCc2nc(NC(=O)c3ccc(-c4nc([C@H]5CC[C@H](O)CC5)n5ccnc(N)c45)cc3)sc2C1
EC50: 100 to 1000 nM
--
molecule: Nc1nccn2c([C@@H]3CCCN(C(=O)C4CSC4)C3)nc(-c3ccc(C(=O)Nc4cc(C(F)(F)F)ccn4)cc3)c12
EC50: < 10 nM
--
molecule: CC[C@H](C)C(=O)N1CCC[C@@H](c2nc(-c3ccc(C(=O)Nc4ccccn4)cc3)c3c(N)nccn23)C1
EC50: 10 to 100 nM
--
molecule: CC1(C(=O)N2C[C@@H](O)C[C@@H](c3nc(-c4ccc(C(=O)Nc5cc(C(F)(F)F)ccn5)cc4)c4c(N)nccn34)C2)COC1 (relative stereo)
EC50: 10 to 100 nM
--
molecule: Nc1ncnc2c1c(-c1ccc(C(=O)Nc3cc(C(F)(F)F)ccn3)cc1)nn2[C@@H]1CCCN(C(=O)[C@H]2CCCO2)C1
EC50: < 10 nM
--
molecule: COCCOCCC(=O)N1CCC[C@@H](c2nc(-c3ccc(C(=O)Nc4cc(C(F)(F)F)ccn4)cc3)c3c(N)nccn23)C1
EC50: < 10 nM
--
molecule: COc1cc(-c2nc([C@H]3CC[C@H](O)CC3)n3ccnc(N)c23)ccc1C(=O)Nc1ccccn1
EC50: 10 to 100 nM
--
molecule: CC(C)C(=O)N1CCOC(c2nc(-c3ccc(C(=O)Nc4cc(C(F)(F)F)ccn4)cc3)c3c(N)nccn23)C1 (stereo not shown)
EC50: < 10 nM
--
molecule: CC(C)(C#N)C(=O)N1CCC[C@@H](c2nc(-c3ccc(C(=O)Nc4ccccn4)cc3)c3c(N)nccn23)C1
EC50: 10 to 100 nM
--
molecule: Nc1nccn2c([C@@H]3CCCN(Cc4ccccc4)C3)nc(-c3ccc(C(=O)Nc4ccccn4)cc3)c12
EC50: 100 to 1000 nM
--
molecule: Nc1nccn2c([C@@H]3CCCN(C=O)C3)nc(-c3ccc(C(=O)Nc4ccccn4)cc3)c12
EC50: 10 to 100 nM
--
molecule: CC(CNC(=O)OCc1ccccc1)c1nc(-c2ccc(C(=O)Nc3cc(C(F)(F)F)ccn3)cc2)c2c(N)nccn12 (stereo not shown)
EC50: 10 to 100 nM
--
molecule: CCOC(=O)N1CCCC(c2cc(-c3ccc(C(=O)Nc4cc(C(F)(F)F)ccn4)cc3)c3c(N)ncnn23)C1 (stereo not shown)
EC50: < 10 nM
--
molecule: Nc1ncnn2c([C@@H]3CCCNC3)nc(-c3ccc(C(=O)Nc4cc(C(F)(F)F)ccn4)cc3)c12
EC50: 10 to 100 nM
--
molecule: CN(C)CCCC(=O)N1CC[C@@H](c2nc(-c3ccc(C(=O)Nc4ccccn4)cc3)c3c(N)nccn23)C1
EC50: 100 to 1000 nM
--
molecule: Nc1nccn2c([C@@H]3CCCN(S(=O)(=O)C4CC4)C3)nc(-c3ccc(C(=O)Nc4cc(C(F)(F)F)ccn4)cc3)c12
EC50: < 10 nM
--
molecule: Nc1nccn2c([C@@H]3CCCN(C(=O)C4CCC4)C3)nc(-c3ccc(C(=O)Nc4cc(C5CC5)ccn4)cc3)c12
EC50: < 10 nM
--
molecule: CCN1CCC[C@@H](c2nc(-c3ccc(C(=O)Nc4cc(C(F)(F)F)ccn4)cc3)c3c(N)nccn23)C1 [Example 138, TFA salt]
EC50: 10 to 100 nM
--
molecule: CSCCC(=O)N1CCC[C@@H](c2nc(-c3ccc(C(=O)Nc4cc(C(F)(F)F)ccn4)cc3)c3c(N)nccn23)C1
EC50: < 10 nM
--
molecule: CCc1cnc(NC(=O)c2ccc(-c3nc(C4CCOCC4)n4ccnc(N)c34)cc2)s1
EC50: 10 to 100 nM
--
molecule: Nc1nccn2c([C@@H]3CCCN(CCc4ccccc4)C3)nc(-c3ccc(C(=O)Nc4ccccn4)cc3)c12 [Example 134, TFA salt]
EC50: 10 to 100 nM
--
molecule: CC(C)(C#N)C(=O)N1CCC[C@@H](n2nc(-c3ccc(C(=O)Nc4cc(C(F)(F)F)ccn4)cc3)c3c(N)ncnc32)C1
EC50: 10 to 100 nM
--
molecule: COCCC(=O)N1C2CCC1C(c1nc(-c3ccc(C(=O)Nc4ccccn4)cc3)c3c(N)nccn13)C2 (stereo not shown)
EC50: 10 to 100 nM
--
molecule: CC(C)C(=O)N1CCC(c2nc(-c3ccc(C(=O)Nc4ccccn4)cc3)c3c(N)nccn23)CC1
EC50: 100 to 1000 nM
--
molecule: COCCC(=O)N1CCC[C@@H](c2nc(-c3ccc(C(=O)Nc4cc(C5CC5)ccn4)cc3)c3c(N)nccn23)C1
EC50: < 10 nM
